We begin with a simple list: items and their reported melting point.
Measure name: melting point

[[record]]
compound = "CCS(=O)(=O)Nc1ccc2[nH]cc(C3=CCN(C)CC3)c2c1"
measure_name = "melting point"
result = "224 to 226 °C"

[[record]]
compound = "CN1CC=C(c2c[nH]c3ccc(NS(C)(=O)=O)cc23)CC1"
measure_name = "melting point"
result = "210 to 214 °C"

[[record]]
compound = "CN1CCC(c2c[nH]c3ccc(NC(=O)c4ccccc4)cc23)CC1.O=C(O)C(=O)O"
measure_name = "melting point"
result = "130 °C"

[[record]]
compound = "NC1CCc2[nH]c3ccc(O)cc3c2C1 (stereo not shown)"
measure_name = "melting point"
result = "230 °C (dec.)"

[[record]]
compound = "CC(=O)c1ccc2[nH]cc(C3CCN(C)CC3)c2c1.Cl.O (hydrate or solvate)"
measure_name = "melting point"
result = "65 °C"

[[record]]
compound = "CN1CC=C(c2c[nH]c3ccc(NC(=O)c4ccco4)cc23)CC1"
measure_name = "melting point"
result = "190 °C (dec.)"

[[record]]
compound = "Cl.Clc1ccc(CCNC2CCc3[nH]c4ccc(OCc5ccccc5)cc4c3C2)cc1 (stereo not shown)"
measure_name = "melting point"
result = "238 to 240 °C"

[[record]]
compound = "CN1CCC(c2c[nH]c3ccc(Sc4ccc(Cl)cc4)cc23)CC1"
measure_name = "melting point"
result = "148 to 150 °C"

[[record]]
compound = "CN1CCC(c2c[nH]c3ccc(NC(=O)Cc4ccccc4)cc23)CC1.O=C(O)C(=O)O"
measure_name = "melting point"
result = "< 90 °C"

[[record]]
compound = "CN1CCC(c2c[nH]c3ccc(NS(=O)(=O)c4ccc(I)cc4)cc23)CC1"
measure_name = "melting point"
result = "> 250 °C"


###

Measure name: melting point

[[record]]
compound = "CCCN1CCC(c2c[nH]c3ccc(NS(C)(=O)=O)cc23)CC1"
measure_name = "melting point"
result = "87 to 90 °C"

[[record]]
compound = "CN1CCC(c2c[nH]c3ccc(NC(=O)c4ccco4)cc23)CC1.O=C(O)/C=C/C(=O)O"
measure_name = "melting point"
result = "114 °C (dec.)"

[[record]]
compound = "Cl.NC1CCc2[nH]c3ccc(NC(=O)c4ccc(F)cc4)cc3c2C1 (centres unmarked)"
measure_name = "melting point"
result = "252 to 255 °C"

[[record]]
compound = "Cc1[nH]c2ccc(NS(C)(=O)=O)cc2c1C1=CCN(C)CC1"
measure_name = "melting point"
result = "176 to 184 °C"

[[record]]
compound = "O=C(Nc1ccc2[nH]cc(C3CCNCC3)c2c1)c1ccc(F)cc1"
measure_name = "melting point"
result = "229 to 230 °C"


###

We begin with a simple list: items and their reported melting point.
Measure name: melting point

[[record]]
molecule = "CN1CCC(c2c[nH]c3ccc(Sc4ccccn4)cc23)CC1"
measure_name = "melting point"
result = "83 °C"

[[record]]
molecule = "CN1CCC(c2c[nH]c3ccc(NC(=O)Nc4ccccc4)cc23)CC1.Cl"
measure_name = "melting point"
result = "215 to 220 °C"

[[record]]
molecule = "Cl.O=C(Nc1ccc2[nH]c3c(c2c1)CC(NCCc1ccccc1)CC3)c1ccc(F)cc1 (stereo not drawn)"
measure_name = "melting point"
result = "207 to 208 °C"

[[record]]
molecule = "CN(C)[C@@H]1CCc2c([nH]c3ccc(Br)cc23)C1.I"
measure_name = "melting point"
result = "252 °C"

[[record]]
molecule = "CN1CCC(c2c[nH]c3ccc(C(=O)c4ccc(N(C)C)cc4)cc23)CC1"
measure_name = "melting point"
result = "103 to 104 °C"

[[record]]
molecule = "CN1CCC(c2c[nH]c3ccc(NS(=O)(=O)c4ccccc4)cc23)CC1"
measure_name = "melting point"
result = "246 to 249 °C (dec.)"

[[record]]
molecule = "CN1CC=C(c2c[nH]c3ccc(NS(=O)(=O)N(C)C)cc23)CC1"
measure_name = "melting point"
result = "207 to 208 °C"

[[record]]
molecule = "CN1CCC(c2c[nH]c3ccc(NC(=O)c4ccc(F)cc4Cl)cc23)CC1"
measure_name = "melting point"
result = "159 to 162 °C"

[[record]]
molecule = "CN1CCC(c2c[nH]c3ccc(C(=O)c4ccc(F)cc4)cc23)CC1"
measure_name = "melting point"
result = "89 °C"

[[record]]
molecule = "CN1CCC(c2c[nH]c3ccc(NC(=O)c4ccc5ccccc5c4)cc23)CC1"
measure_name = "melting point"
result = "153 to 155.5 °C"

[[record]]
molecule = "CN1CCC(c2c[nH]c3ccc(C(=O)c4ccccc4)cc23)CC1"
measure_name = "melting point"
result = "101 °C"

[[record]]
molecule = "Cl.Oc1ccc2[nH]c3c(c2c1)CC(NCCc1ccccc1)CC3 (stereo not drawn)"
measure_name = "melting point"
result = "178 to 180 °C"

[[record]]
molecule = "Cc1ccc(C(=O)c2ccc3[nH]cc(C4CCN(C)CC4)c3c2)cc1"
measure_name = "melting point"
result = "92 °C"

[[record]]
molecule = "Br.CN(C)C1CCc2[nH]c3ccc(NC(=O)C4CCC4)cc3c2C1 (stereo not drawn)"
measure_name = "melting point"
result = "214 to 216 °C"

[[record]]
molecule = "CN1CCC(c2c[nH]c3ccc(N4C(=O)c5ccccc5C4=O)cc23)CC1.O=C(O)C(=O)O"
measure_name = "melting point"
result = "224 °C"

[[record]]
molecule = "COc1ccccc1C(=O)Nc1ccc2[nH]cc(C3CCN(C)CC3)c2c1.O=C(O)/C=C/C(=O)O"
measure_name = "melting point"
result = "90 °C (dec.)"

[[record]]
molecule = "COc1ccc(Sc2ccc3[nH]cc(C4CCN(C)CC4)c3c2)cc1"
measure_name = "melting point"
result = "160 to 162 °C"

[[record]]
molecule = "COc1ccc(C(=O)Nc2ccc3[nH]cc(C4CCN(C)CC4)c3c2)cc1.O=C(O)/C=C/C(=O)O"
measure_name = "melting point"
result = "151 °C (dec.)"

[[record]]
molecule = "CN1CCC(c2c[nH]c3ccc(NC(=O)c4cccc5ccccc45)cc23)CC1.Cl"
measure_name = "melting point"
result = "193 to 203 °C"

[[record]]
molecule = "CCC(=O)Nc1ccc2[nH]cc(C3=CCN(C)CC3)c2c1.O=C(O)/C=C/C(=O)O"
measure_name = "melting point"
result = "170 to 173 °C"

[[record]]
molecule = "CC(C)N1CC=C(c2c[nH]c3ccc(NS(C)(=O)=O)cc23)CC1"
measure_name = "melting point"
result = "211 to 213 °C (dec.)"


These measurements were taken from patent US6380201B1.
